# Test system: K4 kissing-loop RNA reporter
# protocol description: apparent KD of K4 kissing-loop reporter; higher = weaker reporter binding
# protocol conditions: Eterna round: R107; input ligand: FMN 200 uM
measured metric: apparent KD of K4 kissing-loop reporter

Look over these answered cases.
GAGAGCCCUGGAGGAUAUGAGUCUAGUGAUGUUAGGCGGUCCAUGCGCGUGGCGCGUUAUGCCCUUUUAGAAGGCCAGGGCUCUC [#2 Exclusion - FMN B Attempt #18 (HarryS)] :: 109 nM
GGUGUUGUUUGUGCUGUUUUCUUCGUUUCUCGAGGACCGGUACGGCCGCCACUCGAGUGAUGUUUGGGUAGCGAUCUUUGUUAGU [Bdazzled - #4- Exc. Tryptophan A] :: 430 nM
AGCUAUUAGACGGCCGCCACUUGCUCUGAGACCUGACAUGGAACCAGUGAUGUUGGUUUGCGUGUAAGGACCGGGUUUGGUGGCG [Tiesbi] :: 107 nM
UUUGGUUGUGGUGUUGAUUAGGGAGCGGAAGGAGCGCCGAGGAGGGCAGGUAGGUCGCCGGAAUGUAGUGAUGUUGCAUAGAGGU [ExArgA.Ad] :: 325 nM
AAGGUCACUACUACAGUGAUGUUGUAGGAGCAGGAUAUGCAGAAAUGCAGAAGGGCUCGCUCCAAGUGACCGAAUGAAACAUUCA [Omei KL FMN A SS A v2] :: 368 nM

Asked: # apparent KD of K4 kissing-loop reporter lookup, item UCUGCAAAGUCGGCCGCCACUCCGGGCCCUAUAAAUGGGCGCAGUGAUGUUGCGGCUAGGCCUCUGAGGACCGGGACUUUGUAGA [Atlesoqu]
Given back: 87.5 nM

Asked: Thanks! And GGCGGCUGCGCGCAAGCGCAGCCGGCCGAUACCAGCGCGACGGCGCGCCCUUGGCAGCGGCGCCGAGUGAUGUUCGGCCUGCCGU [#2 Same State - Theophylline A Attempt #22 (HarryS)] ?
Given back: 113 nM

----------
# Tested on: MS2 coat protein
# protocol description: apparent KD of MS2 coat protein; designed switch direction (-1 OFF switch, 1 ON switch): -1; higher = weaker reporter binding
# protocol conditions: input ligand: none
Overview of recorded apparent KD of MS2 coat protein for various sequences
State the answer as a number, implicitly in nM.

UCAUCGCAAGGAUAUACUUGCGGUGAUGUUCGAAUUCUUCUACUUGAGGAUCACCCAAGUAGAAGGUGCGAUGA [jl-ex2.4.63 ViennaUCT mod] (Eterna round: R97, puzzle: Exclusion 2) :: 13.5

Asked: # apparent KD of MS2 coat protein lookup, item CAAGCUUUGCGAGGAUAUGAUGGCCUAUAUGCCUCAGAAGGCGCAGAAACUUGAGGAUCACCCAAGUGAUGCAAAUACGAAAAU [Mutated MS2 EX1.9] (Eterna round: R96, puzzle: Exclusion NG 1)
Given back: 21.8

Asked: Thanks! And UACAUGAGGAUCACCCAUGUUUUGUCGUGUAUGGUAUUUAUCUAGGAUAUCAAUGUAUUUAAUUAUGAGAAGGAGAAUAUUAAU [JMF's solution 45] (Eterna round: R96, puzzle: Exclusion NG 3) ?
Given back: 44.6

----------
# System: K4 kissing-loop RNA reporter;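 also: bound reporter read as fluorescence of individual clusters on recovered sequencing chips by microscopy, with normalized cluster intensities fitted with a binding model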
# protocol description: apparent KD of K4 kissing-loop reporter; higher = weaker reporter binding
# protocol conditions: Eterna round: R107; input ligand: arginine 13.2 mM
Overview of recorded apparent KD of K4 kissing-loop reporter for various sequences
State the answer as a number, implicitly in nM.

Look over these answered cases.
UGUCAUUGGUCGGCCGCCACUCCAUAACGAGUGAUGUUCUAAAAGACGGAUCGAAAGAUCUGUCGGAGGACCGGGACCGAUGACU [FiskerMod 6 - Jieux - Same State - Tryptophan B] :: 308
AGUGAUGUGGGAAGGAGCGGUUAAUGAAUUCAGUGAUGUUGAAGUGAUGCUGAAAUGAUGUGCCAGGUAGGUCGCCUAGAUGUUA [KL-XARG B28] :: 164
AAGCAGUCCCUUGUUGUCAUCGAAGAUGAACGAGGACCGGUACGGCCGCCACUCGGAGUGAUGUUCCGAAGGCUGCAAAAUAAAA [MatMod 20 - Jieux - Exclusion - Tryptophan A] :: 112
AGGAUCCACCAGUGAUGUUGGAAAUACUCCAAGGAUAUGACGAAAGUCAGAAGGUGGUAGACUGGACAAAGUCCAGUCGGAUCCA [FmnA 28 #SwitchBubble #K4Early] :: 247

Could you now consider this next sequence?
Asked: # apparent KD of K4 kissing-loop reporter lookup, item AAAAUAAAUCAGUGAUGUUGGUAUCUGGAUACCAGCGAUAAUAGUCGCCCUUGGCAGCCAUGGACGUACAAAAUAAGUACGUCCU [MatMod 19 - Jieux - Same State - Theophylline A]
Given back: 117

Reference for the values: the supplement of paper PMC9170038
